# Experimental System: D(2) dopamine receptor (Rattus norvegicus)
# Sequence (P61169 whole entry): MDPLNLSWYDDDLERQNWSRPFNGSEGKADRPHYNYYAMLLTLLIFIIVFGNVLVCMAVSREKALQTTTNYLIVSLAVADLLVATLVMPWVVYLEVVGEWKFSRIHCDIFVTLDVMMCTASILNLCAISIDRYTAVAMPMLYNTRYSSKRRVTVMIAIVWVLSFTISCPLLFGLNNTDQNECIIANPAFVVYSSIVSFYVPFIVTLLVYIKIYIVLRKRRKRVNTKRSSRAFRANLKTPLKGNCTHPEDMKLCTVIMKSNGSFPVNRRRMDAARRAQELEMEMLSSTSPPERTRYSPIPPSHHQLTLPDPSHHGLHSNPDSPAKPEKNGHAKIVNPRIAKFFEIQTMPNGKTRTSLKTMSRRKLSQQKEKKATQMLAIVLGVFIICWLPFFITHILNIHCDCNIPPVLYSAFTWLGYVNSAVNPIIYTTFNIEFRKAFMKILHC
# Assay Protocol: Binding affinity to dopamine receptor D2 in the rat brain using [3H]NPA as radioligand
Quantity: IC50 (nM)

>  <Structure>
O=C1Cc2cc(CCN3CCN(c4cccc5ccccc45)CC3)ccc2N1

>  <Experimental System>
D(2) dopamine receptor (Rattus norvegicus)

>  <Value Observed>
38

$$$$
>  <Structure>
Oc1nc2ccc(CCN3CCN(c4cccc5ccccc45)CC3)cc2o1

>  <Experimental System>
D(2) dopamine receptor (Rattus norvegicus)

>  <Value Observed>
44

$$$$
>  <Structure>
Cc1sc(N)nc1-c1ccc(CCN2CCN(c3cccc4ccccc34)CC2)cc1

>  <Experimental System>
D(2) dopamine receptor (Rattus norvegicus)

>  <Value Observed>
159

$$$$
>  <Structure>
CCN1C(=O)Cc2cc(CCN3CCN(c4cccc5ccccc45)CC3)ccc21

>  <Experimental System>
D(2) dopamine receptor (Rattus norvegicus)

>  <Value Observed>
81.2

$$$$
>  <Structure>
Cc1nc(-c2ccc(CCN3CCN(c4cccc5ccccc45)CC3)cc2)cs1

>  <Experimental System>
D(2) dopamine receptor (Rattus norvegicus)

>  <Value Observed>
108

$$$$
>  <Structure>
Oc1nc(-c2ccc(CCN3CCN(c4cccc5ccccc45)CC3)cc2)cs1

>  <Experimental System>
D(2) dopamine receptor (Rattus norvegicus)

>  <Value Observed>
80

$$$$
>  <Structure>
CC1(C)C(=O)Nc2ccc(CCN3CCN(c4cccc5ccccc45)CC3)cc21

>  <Experimental System>
D(2) dopamine receptor (Rattus norvegicus)

>  <Value Observed>
86

$$$$
>  <Structure>
Nc1nc(-c2ccc(CCN3CCN(c4cccc5ccccc45)CC3)cc2)cs1

>  <Experimental System>
D(2) dopamine receptor (Rattus norvegicus)

>  <Value Observed>
72

$$$$
>  <Structure>
CNc1nc(-c2ccc(CCN3CCN(c4cccc5ccccc45)CC3)cc2)cs1

>  <Experimental System>
D(2) dopamine receptor (Rattus norvegicus)

>  <Value Observed>
155

$$$$
>  <Structure>
c1ccc2c(N3CCN(CCc4ccc(-c5csnn5)cc4)CC3)cccc2c1

>  <Experimental System>
D(2) dopamine receptor (Rattus norvegicus)

>  <Value Observed>
83

$$$$
